# Measured on: CerS1 (Homo sapiens)
# Sequence (P27544 whole entry): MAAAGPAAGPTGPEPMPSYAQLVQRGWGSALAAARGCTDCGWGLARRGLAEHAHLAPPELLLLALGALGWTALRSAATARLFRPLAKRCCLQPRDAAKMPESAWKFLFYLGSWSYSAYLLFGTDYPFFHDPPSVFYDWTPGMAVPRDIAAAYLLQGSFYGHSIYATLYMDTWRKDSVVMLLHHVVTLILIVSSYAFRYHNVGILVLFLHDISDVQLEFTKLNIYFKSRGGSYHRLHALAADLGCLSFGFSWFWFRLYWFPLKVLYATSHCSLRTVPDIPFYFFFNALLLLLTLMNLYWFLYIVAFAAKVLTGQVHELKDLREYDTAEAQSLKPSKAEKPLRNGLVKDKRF
# Measurement notes: Ceramide synthase assay, HPLC-based with fluorescent NBD-dihydrosphingosine, C18:0-CoA; extracts of HEK293 cells expressing human CerS1
# Type: biochemical
# Parameters: host or cells: HEK293
# Condition description: read-out: IC50 for inhibition of CerS1
Quantity: IC50 (nM)

# Compound, Meas value
measured = [
    ("C[C@@](N)(CO)CCc1ccc(OCc2ccc(Cl)c(Cl)c2)cc1 [P053]", 500),
]

----------
# Measured on: murine CerS1 (Mus musculus)
# Sequence (P27545 whole entry): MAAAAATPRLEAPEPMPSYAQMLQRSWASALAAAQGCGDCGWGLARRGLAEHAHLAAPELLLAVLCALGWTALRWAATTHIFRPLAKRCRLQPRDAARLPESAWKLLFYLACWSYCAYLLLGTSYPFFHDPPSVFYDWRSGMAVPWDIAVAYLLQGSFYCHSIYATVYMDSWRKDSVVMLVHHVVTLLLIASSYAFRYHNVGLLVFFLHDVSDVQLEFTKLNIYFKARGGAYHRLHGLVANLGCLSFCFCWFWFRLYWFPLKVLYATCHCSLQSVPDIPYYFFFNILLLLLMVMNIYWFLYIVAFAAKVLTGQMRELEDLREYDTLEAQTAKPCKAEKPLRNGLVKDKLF

# Compound, IC50
measured = [
    ("CCCCCCCCc1ccc(CCC(N)(CO)CO)cc1 [FTY720, reference compound]", "5.6 µM"),
]

----------
# Measured on: UniProtKB Q924Z4
# Sequence (Q924Z4 1-380): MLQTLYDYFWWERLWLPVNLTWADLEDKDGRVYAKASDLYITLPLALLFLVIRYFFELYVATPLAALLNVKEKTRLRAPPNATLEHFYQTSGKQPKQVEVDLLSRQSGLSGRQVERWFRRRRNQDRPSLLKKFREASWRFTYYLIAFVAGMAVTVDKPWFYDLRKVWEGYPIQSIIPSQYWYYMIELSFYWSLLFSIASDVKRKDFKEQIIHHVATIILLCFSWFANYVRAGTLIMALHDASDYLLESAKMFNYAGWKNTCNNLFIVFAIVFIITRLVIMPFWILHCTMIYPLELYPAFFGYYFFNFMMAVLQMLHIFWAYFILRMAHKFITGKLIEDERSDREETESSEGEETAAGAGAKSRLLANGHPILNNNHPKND
pIC50: −log10 of the molar value.

# Compound, Measured on, pIC50
data = [
    ("C[C@@](N)(CO)CCc1ccc(OCc2ccc(Cl)c(Cl)c2)cc1", "UniProtKB Q924Z4", 4.73),
    ("CCCCCCCCc1ccc(CCC(N)(CO)CO)cc1 [FTY720, reference compound]", "UniProtKB Q924Z4", 4.97),
]
